// reported interaction score per item
Biological target: T1, P1-AA
T1 chain: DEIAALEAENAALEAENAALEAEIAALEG
Experiment: two-hybrid library CCmax;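 further: natural log of median RNA to DNA barcode read ratio; higher means stronger binding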
Settings: mean of both orientations
measuredProperty: interaction score

binder: DELAAIEAELAAEEAENAALEAEAAALEG [AP1-AA]
reported: -1.54
//
binder: DEEAALEAKAAALKAELAANEAKLAAAKG [AP6-AA]
reported: -1.88
//
binder: KELQAIEKQLAQLQWKAQARKKKLAQLKK [4H_APH]
reported: -2.11
//
binder: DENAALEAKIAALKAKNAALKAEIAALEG [4H1401-AA]
reported: -0.911
//
binder: DELAANEAELAAEEAKLAAAKAKAAALKG [AP4-AA]
reported: -1.34
//
binder: DELAAEEAKNAALKAKLAAAKAEIAALEG [AP7-AA]
reported: -1.52
//
binder: DKLAAAKAEIAALEAELAANEAKKAALKG [AP8-AA]
reported: -1.78
//
binder: DEIAALEAKNAALKAELAAIEAKIAAKKG [AP5-AA]
reported: -1.35
//
binder: DELAAIEAEIAALEAKKAALKAKNAALKG [AP3-AA]
reported: -2.22
